measuredOn: Glucose-dependent insulinotropic receptor (Rattus norvegicus)
methodSummary: […] of rat GPR119 activity by homogeneous time resolved fluorescence cyclase (cAMP) assay relative to AR231453
Assay type: functional
endpointName: Efficacy (%)
Your answer should be a plain number; it is taken to be in %.

*Q* Requested field: Efficacy. Item: Cc1nc(S(C)(=O)=O)ccc1Oc1ncnc(OC2CCN(C(=O)OC3COC3)CC2)c1F
*A* 66

*Q* // query Efficacy value for entry Cc1nc(S(C)(=O)=O)ccc1Oc1ncnc(OC2CCN(C(=O)c3noc(C(C)(C)F)n3)CC2)c1F
*A* 74

*Q* Consider the compound Cc1nc(S(C)(=O)=O)ccc1Oc1ncnc(OC2CCN(C(=O)O[C@@H](C)CF)CC2)c1F and give its measured Efficacy.
*A* 84

*Q* # input compound: Cc1nc(S(C)(=O)=O)ccc1Oc1ncnc(OC2CCN(C(=O)SC(C)(C)C)CC2)c1F ; wanted: its Efficacy
*A* 76

*Q* Query: Efficacy; subject: Cc1nc(S(C)(=O)=O)ccc1Oc1ncnc(OC2CCN(C(=O)OC(C)(C)C(F)(F)F)CC2)c1F
*A* 79

*Q* For the compound Cc1nc(S(C)(=O)=O)ccc1Oc1ncnc(OC2CCN(C(=O)C3(F)CCC3)CC2)c1F , what Efficacy is on record?
*A* 91

*Q* Form field: reported Efficacy of Cc1nc(S(C)(=O)=O)ccc1Oc1ncnc(OC2CCN(C(=O)SC3CC3)CC2)c1F
*A* 80

*Q* // lookup Efficacy for Cc1nc(S(C)(=O)=O)ccc1Oc1ncnc(OC2CCN(C(=O)c3noc(C(C)C)n3)CC2)c1F
*A* 81

*Q* Efficacy lookup needed for Cc1nc(S(C)(=O)=O)ccc1Oc1ncnc(OC2CCN(C(=O)O[C@@H](C)C(F)(F)F)CC2)c1F , thanks.
*A* 80

###

methodSummary: Efflux ratio of permeability in human Caco2 cells
Type: ADME, cell-based
measurementParameters: Caco-2
endpointName: efflux ratio

*Q* I have this compound here, Cc1nc(S(C)(=O)=O)ccc1Oc1ncnc(OC2CCN(C(=O)OC3(C)CC3)CC2)c1F , and I need its recorded efflux ratio.
*A* 1

###

measuredOn: Glucose-dependent insulinotropic receptor (Homo sapiens)
methodSummary: […] of human GPR119 activity by homogeneous time resolved fluorescence cyclase (cAMP) assay relative to AR231453
Type: functional
Classes are defined on Efficacy with ranges range A: < 70%; range B: ≥ 70% and < 90%; range C: ≥ 90%

*Q* Where would Cc1nc(S(C)(=O)=O)ccc1Oc1ncnc(OC2CCN(C(=O)OC3(C)CC3)CC2)c1F land among the classes by reported Efficacy?
*A* range C

*Q* Please classify: Cc1nc(S(C)(=O)=O)ccc1Oc1ncnc(OC2CCN(C(=O)SC(C)(C)C)CC2)c1F
*A* range B

*Q* Determine which band this compound sits in: Cc1nc(S(C)(=O)=O)ccc1Oc1ncnc(OC2CCN(C(=O)SC3CCC3)CC2)c1F
*A* range C

*Q* Please let me know in which category the item Cc1nc(S(C)(=O)=O)ccc1Oc1ncnc(OC2CCN(C(=O)c3ncc(Cl)cn3)CC2)c1F belongs.
*A* range B

*Q* Kindly identify the class of Cc1nc(S(C)(=O)=O)ccc1Nc1ncnc(OC2CCN(C(=O)OC(C)C)CC2)c1F .
*A* range B

*Q* Which Efficacy category applies to Cc1nc(S(C)(=O)=O)ccc1Oc1ncnc(OC2CCN(C(=O)OC3(C(F)(F)F)CCC3)CC2)c1F here?
*A* range A

*Q* Categorize the following entry: CCC1(OC(=O)N2CCC(Oc3ncnc(Oc4ccc(S(C)(=O)=O)nc4C)c3F)CC2)CC1
*A* range A

*Q* Category of CCc1cnc(C(=O)N2CCC(Oc3ncnc(Oc4ccc(S(C)(=O)=O)nc4C)c3F)CC2)nc1 :
*A* range C

*Q* Which bin should I file Cc1nc(S(C)(=O)=O)ccc1Oc1ncnc(OC2CCN(C(=O)C(F)(F)F)CC2)c1F under?
*A* range A

*Q* Assign a bin to Cc1nc(S(C)(=O)=O)ccc1Oc1ncnc(OC2CCN(C(=O)OC(C)C)CC2)c1F
*A* range B

*Q* Pick a category. Item: Cc1nc(S(C)(=O)=O)ccc1Oc1ncnc(OC2CCN(C(=O)SC3CC3)CC2)c1F
*A* range C

*Q* Please classify: Cc1nc(S(C)(=O)=O)ccc1Oc1ncnc(OC2CCN(C(=O)OC3COC3)CC2)c1F
*A* range A

*Q* Note: place this compound into its band. Item: Cc1nc(S(C)(=O)=O)ccc1Oc1ncnc(OC2CCN(C(=O)O[C@@H](C)C(F)(F)F)CC2)c1F
*A* range B

*Q* Given Cc1nc(S(C)(=O)=O)ccc1Oc1ncnc(OC2CCN(C(=O)C3(F)CCC3)CC2)c1F , name the class its Efficacy places it in.
*A* range C

*Q* Lab note: sort Cc1nc(S(C)(=O)=O)ccc1Oc1ncnc(OC2CCN(C(=O)OC3(C(F)(F)F)COC3)CC2)c1F into the matching Efficacy band.
*A* range A

*Q* Record Cc1nc(S(C)(=O)=O)ccc1Oc1ncnc(OC2CCN(C(=O)OC3CCC3)CC2)c1F — which class?
*A* range A

*Q* Entry Cc1nc(S(C)(=O)=O)ccc1Oc1ncnc(OC2CCN(C(=O)C(C)(F)F)CC2)c1F belongs to which category?
*A* range B

*Q* Which bin should I file Cc1nc(S(C)(=O)=O)ccc1Oc1ncnc(OC2CCN(C(=O)OC(C)(C)C(F)(F)F)CC2)c1F under?
*A* range A

*Q* Which category does the recorded Efficacy put Cc1nc(S(C)(=O)=O)ccc1Oc1ncnc(OC2CCN(C(=O)O[C@H](C)C(F)(F)F)CC2)c1F in?
*A* range A

*Q* Consider Cc1nc(S(C)(=O)=O)ccc1Oc1ncnc(OC2CCN(C(=O)C(C)(C)F)CC2)c1F . To which Efficacy class does it belong?
*A* range A

*Q* Band for the recorded Efficacy of Cc1nc(S(C)(=O)=O)ccc1Oc1ncnc(OC2CCN(C(=O)SC3(C)CC3)CC2)c1F ?
*A* range C

###

measuredOn: Glucose-dependent insulinotropic receptor (Rattus norvegicus, UniProt Q7TQN8)
Sequence (Q7TQN8 whole entry): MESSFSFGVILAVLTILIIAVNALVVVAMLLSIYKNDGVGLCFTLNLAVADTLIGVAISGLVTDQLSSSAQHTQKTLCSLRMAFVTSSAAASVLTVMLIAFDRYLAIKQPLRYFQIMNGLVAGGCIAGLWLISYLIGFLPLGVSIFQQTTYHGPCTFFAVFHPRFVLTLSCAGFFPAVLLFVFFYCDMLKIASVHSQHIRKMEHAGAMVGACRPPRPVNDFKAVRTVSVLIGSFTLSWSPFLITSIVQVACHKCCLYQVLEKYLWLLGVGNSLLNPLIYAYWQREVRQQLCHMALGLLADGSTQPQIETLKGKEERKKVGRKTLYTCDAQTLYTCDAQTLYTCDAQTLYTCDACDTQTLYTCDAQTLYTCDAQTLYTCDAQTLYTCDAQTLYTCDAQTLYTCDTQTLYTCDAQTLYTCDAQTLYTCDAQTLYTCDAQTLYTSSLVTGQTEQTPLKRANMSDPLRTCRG
methodSummary: […] of rat GPR119 activity by homogeneous time resolved fluorescence cyclase (cAMP) assay
Under this convention, satisfied denotes EC50 strictly below 300 nM and not satisfied denotes EC50 at or above 300 nM.

*Q* # TODO verify EC50 < 300 nM strictly for this compound: Cc1nc(S(C)(=O)=O)ccc1Oc1ncnc(OC2CCN(C(=O)OC3(C(F)(F)F)CCC3)CC2)c1F
*A* satisfied

*Q* Below 300 nM on EC50? Entry Cc1nc(S(C)(=O)=O)ccc1Oc1ncnc(OC2CCN(C(=O)O[C@@H](C)CF)CC2)c1F
*A* not satisfied

*Q* Check if EC50 falls below 300 nM for Cc1nc(S(C)(=O)=O)ccc1Oc1ncnc(OC2CCN(C(=O)O[C@@H](C)C(F)(F)F)CC2)c1F .
*A* satisfied

*Q* Decide: EC50 of Cc1nc(S(C)(=O)=O)ccc1Nc1ncnc(OC2CCN(C(=O)OC(C)C)CC2)c1F strictly below 300 nM?
*A* satisfied

*Q* Does Cc1nc(S(C)(=O)=O)ccc1Oc1ncnc(OC2CCN(C(=O)OC(C)(C)CF)CC2)c1F have EC50 strictly under 300 nM?
*A* satisfied

*Q* Determine if Cc1nc(S(C)(=O)=O)ccc1Oc1ncnc(OC2CCN(C(=O)OC(C)(C)C#N)CC2)c1F shows EC50 strictly lower than 300 nM.
*A* not satisfied

*Q* Strictly below 300 nM: is that where EC50 of Cc1nc(S(C)(=O)=O)ccc1Oc1ncnc(OC2CCN(C(=O)C(C)(F)F)CC2)c1F sits?
*A* satisfied

*Q* Take the compound Cc1nc(S(C)(=O)=O)ccc1Oc1ncnc(OC2CCN(C(=O)SC(C)C)CC2)c1F and say whether its EC50 is less than 300 nM.
*A* satisfied

*Q* In the record for Cc1nc(S(C)(=O)=O)ccc1Oc1ncnc(OC2CCN(C(=O)OC3(C(F)(F)F)COC3)CC2)c1F , is EC50 less than 300 nM?
*A* not satisfied

*Q* Does this compound meet the criterion EC50 < 300 nM? Cc1nc(S(C)(=O)=O)ccc1Oc1ncnc(OC2CCN(C(=O)C(F)(F)F)CC2)c1F
*A* not satisfied

*Q* Record CCC1(OC(=O)N2CCC(Oc3ncnc(Oc4ccc(S(C)(=O)=O)nc4C)c3F)CC2)CC1 : is its EC50 strictly below 300 nM?
*A* not satisfied

*Q* Is it true that EC50 reported for Cc1nc(S(C)(=O)=O)ccc1Oc1ncnc(OC2CCN(C(=O)C3CCCC3)CC2)c1F is less than 300 nM?
*A* not satisfied

###

measuredOn: Glucose-dependent insulinotropic receptor (Homo sapiens, UniProt Q8TDV5)
Sequence (Q8TDV5 whole entry): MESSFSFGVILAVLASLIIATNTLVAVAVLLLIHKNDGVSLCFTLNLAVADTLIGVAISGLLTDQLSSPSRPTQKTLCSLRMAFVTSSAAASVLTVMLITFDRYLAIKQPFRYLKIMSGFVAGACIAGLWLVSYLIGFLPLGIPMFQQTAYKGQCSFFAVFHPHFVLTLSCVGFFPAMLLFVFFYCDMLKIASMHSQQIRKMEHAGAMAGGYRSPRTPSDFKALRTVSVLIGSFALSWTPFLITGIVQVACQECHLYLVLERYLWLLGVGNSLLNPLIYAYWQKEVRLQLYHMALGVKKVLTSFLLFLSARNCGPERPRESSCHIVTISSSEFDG
methodSummary: […] of human GPR119 activity by homogeneous time resolved fluorescence cyclase (cAMP) assay
endpointName: pEC50
By convention, pEC50 is the negative base-10 log of a molar concentration.

*Q* Entry under review: Cc1nc(S(C)(=O)=O)ccc1Oc1ncnc(OC2CCN(C(=O)O[C@@H](C)C(F)(F)F)CC2)c1F . Reported pEC50?
*A* 8.01

*Q* Entry Cc1nc(S(C)(=O)=O)ccc1Oc1ncnc(OC2CCN(C(=O)OC3CCC3)CC2)c1F : reported pEC50 = ?
*A* 7.87

*Q* Any idea what its pEC50 is? The compound is Cc1nc(S(C)(=O)=O)ccc1Oc1ncnc(OC2CCN(C(=O)OC3(C(F)(F)F)CCC3)CC2)c1F
*A* 7.84

*Q* State the recorded pEC50 for this entry: Cc1nc(S(C)(=O)=O)ccc1Oc1ncnc(OC2CCN(C(=O)OC(C)(C)C(F)(F)F)CC2)c1F
*A* 8.19

*Q* Which pEC50 value is on record for Cc1nc(S(C)(=O)=O)ccc1Oc1ncnc(OC2CCN(C(=O)c3ncc(Cl)cn3)CC2)c1F ?
*A* 8.21
